procedure-details: yeast display, Sf9 membrane polyspecificity reagent, FACS + sequencing; frameworks hold sequencing errors
quantity-kind: polyreactivity (PSR sort gate)

primary-sequence: QVQLVESGRGLVQAGGSLRLSCAASGITFYTYAMGWYRQEPGKARELVATISSGGSTDYADSVKGRFTISRDNAKITVYLQMNSLKPEDTAVYYCADQYSYRIYYLYDYWGQGTQVTVSS
quantity-kind: polyreactivity (PSR sort gate)
measurement: low polyreactivity
--
primary-sequence: QVQLVESGGGLVQAGGSLRLSCAASGSIFFFYVMGWYRQAPGKERELVAAINNGGSTNYADSVKGRFTISRDNAKNTVYLQMNSLKPEDTAVYYCAADSITSKNQGLDYDYWGQGTQVTVSS
quantity-kind: polyreactivity (PSR sort gate)
measurement: low polyreactivity
--
primary-sequence: QDQLVESGGGLVQAGGSLRLSCAASGLIIRWYAMGWDRQAPGKERELVAAISGNGGRTYYADSVKGRFTISRDNASNTVYLQMNSLKPEDTAVYYCAAEYRRALGVDYWGQGTQVTVSW
quantity-kind: polyreactivity (PSR sort gate)
measurement: high polyreactivity
--
primary-sequence: QVQLVESGGGLVQAGGSLRLSCAASGRIFPGKAMGWYRQAPGKEREFVASINWSRGSTFYADSVKGRFTISRDNAKNTVYLQMNRLIPEDTAVYYCSARTFGYYRSRSYNYWGQGTQVTVSS
quantity-kind: polyreactivity (PSR sort gate)
measurement: high polyreactivity
--
primary-sequence: QVQHVESGGGLVQAGGSLRLSCAASGLTIWYYAIGWYRQAPGKEREFVAAITSRGGDTYYADSVKGRFTISRDNAKNTVYLQLNSLKPEDTGVYYCAVRPRYYGTYRYYYWGQGTQVTVSS
quantity-kind: polyreactivity (PSR sort gate)
measurement: high polyreactivity
--
primary-sequence: QVQLVESGGGLVQAGGSLRLSCAASGGIFAPYAMGWYRQAPGKERELVADITSEGGSTYYADSVKGRFTISRDIEKNTVYLQMNSLKPEDTAVYYCAAEQRYCWWGHPGDYWGKGTQVTVSS
quantity-kind: polyreactivity (PSR sort gate)
measurement: low polyreactivity
--
primary-sequence: QVQLVESGGGLVQAGGSLRLSCAASGRIFGRNAMGWYRQAPGKERELVAAITYSGGRTYYADSVKGRFTISRDNAKNTVYLQMNSLKPEDTAVYYCAAYSFAYRYNYWGQGTQVTVSS
quantity-kind: polyreactivity (PSR sort gate)
measurement: high polyreactivity
--
primary-sequence: QVQLVESGGGLVQAGGSLRLSCAASGRIFHYYAMGWYRQAPGKERELVAASTFRGGNTYADSVKGRFTISRDNAKNTVYLQMNSLKPEDTAVYYCADSRLSGYYSRYGYWGQGTQVTVSS
quantity-kind: polyreactivity (PSR sort gate)
measurement: high polyreactivity
--
primary-sequence: QVQLVESVGGLVQAGGSLRLSCAASGFTSWDNDMGWYRQAPGKERELVAAISRGGSTNYADSVKGRFTISRDNAKNTVYLQMNSLKPEDTAVYYCATAAVTPVWYDYWGQGTQVTVSS
quantity-kind: polyreactivity (PSR sort gate)
measurement: low polyreactivity
--
primary-sequence: QVQLVESGGGLVQAGGSLRLSCAGSGIIFFPYAMGWYRPAPGKERELVASINISDSSTYYADSVKGRFTISRDNAKNTVYLQMNSLKPQDTAVYYCAADNRGDSWYWHGYWGQGTQVTVSS
quantity-kind: polyreactivity (PSR sort gate)
measurement: low polyreactivity
--
primary-sequence: QVQLVESGGGLVQAGGSLRLSCAASGIIILWNAMGWDRQAPGKERELVATISWTDGSTSYADSVKGRFTISRDNAKNTVYLQMNSLKPEDTAVYYCNVRHKSYRKSDYWGQGTQVTVSS
quantity-kind: polyreactivity (PSR sort gate)
measurement: low polyreactivity
--
primary-sequence: QVQLVESGGGLVQAGGRLRLSCAASGSICEPYVMGWYIQAPGKERELVAAIRQTGGSTYYADSVKGRFTISRDNAKNTVYLQMNSLKPEDTAVYYCNAEQKPSGLYDYRGVEGEMGYWGQGTQVTVSS
quantity-kind: polyreactivity (PSR sort gate)
measurement: low polyreactivity
--
primary-sequence: QVQLVESGGGLVQAGYSLRLSFAASGITFRYYAMGWYRQATGKERELVAGITWSGPSTYYADSVKGRFTISRDNAKNTVYLQMNILKPEYTAVFYCAVDYGLYFTFDYWGQGTQVTVSS
quantity-kind: polyreactivity (PSR sort gate)
measurement: low polyreactivity
--
primary-sequence: QVQLVESGGGLVQAGGSLRLSCAASGSIIGDNTKGWYRQAPGKERELVAAISWRGGSTYYADSVKGRFTISLDNAKNTVFLQMNSLKPEDTAVYYCIGGPGGYDYWGQGSQVTVSS
quantity-kind: polyreactivity (PSR sort gate)
measurement: low polyreactivity
--
primary-sequence: QVQLVESGGGLVQAGGSLRFSCAASGITIRFYAMGWYRQAPGKERELVAAITRGGSTTYAHSVKGRFTISRDNAKNTVYLQMNSLKPEDTEVSYCNAQYQSGYYTSYPDRFDTWGQGTQVTVSS
quantity-kind: polyreactivity (PSR sort gate)
measurement: low polyreactivity
--
primary-sequence: QFQLVESGGGLVQAGGSLRLSCAASGSTFSANAMGWYRQAPGKERELVASISRRGGSTYYADSVKGRFTISRDIAKNTVYLQMNSLKPEDTAVYYCNKRFARQGSPSEYGRSQIGYYYWGQGTQVTVSS
quantity-kind: polyreactivity (PSR sort gate)
measurement: high polyreactivity
--
primary-sequence: QVQLVESGGGLVQAGGSLRLSCAASGSIFYYNAMGWYRQAPGKERELVAAITSSGGSTYADSVKGRFSISRDNAKNTVYLQMKSLKPEDTAVYYCNADGGYSYESTDHYGYEYWGQGTQVTVSS
quantity-kind: polyreactivity (PSR sort gate)
measurement: low polyreactivity
--
primary-sequence: QVQLVESGGGLVQAGGSLRLSCAASGSIIGRYTMGWYRQAPGKERELVAAINRSGGSTSYADSVKGRFTISRDNAKNTVYLQMNSLKPEDTAVYYCNRARSVPQFYGTYGFGYDYWGQGTQVTVSS
quantity-kind: polyreactivity (PSR sort gate)
measurement: low polyreactivity
--
primary-sequence: QVQLLESVGGLVQAGGSLRISCAASGIIFKSYAMGWYRQAPGKERELVAAISSGGSTYYVDSVKGRFTISRDNAKNTVYLQMNSLKPEDTAVYYCAAYGKYQGYGHWGQGTQVTVSS
quantity-kind: polyreactivity (PSR sort gate)
measurement: high polyreactivity
--
primary-sequence: QVQLVESGGGLVQAGGSLRLICAASGLTLYPYAMGWYRQAPGKERELVAAISGAGTRTYYADSVKGRFTISRDNAKNTVYLQMNSLKPEDTAVYYCAAVGFRPYDYWGQGTQLTVSS
quantity-kind: polyreactivity (PSR sort gate)
measurement: high polyreactivity
--
primary-sequence: QVQLVESGGGLDQAGGSLRLSCAASGFTFTGYAMGWYRQAPGKERELVAAITRGGGSTYYADSVKGRFTISRDNAKNTVYLQMNSLKPEDTAVYYSAAQRSRLIRISSPYYGHDYWGQGTQVTVSS
quantity-kind: polyreactivity (PSR sort gate)
measurement: low polyreactivity
